system: IL-8 secretion in the human THP-1 monocyte cell line; assay: inhibition of LPS-induced IL-8 secretion in THP-1 cells (ELISA); type: cell-based; details: LPS, ELISA of supernatant, read-out: IC50(ILB) inhibition of LPS-induced IL-8 secretion
Result Type: IC50 (nM)

In [3]: df
Out[3]:
                                     smiles  result_type  reading
0  COc1c(F)ccc2c1C(C)(C)C[C@@](O)(C(F)(F)F)[C@@H]2NC(=O)Nc1ccc2ccccc2c1         IC50     1000
